details: rat, in vivo, 30 mg/kg
quantity: Cmax

For the molecule Cl.NCCS [cysteamine HCl, cysteamine hydrochloride] , what Cmax is on record?
~55.3 µM

// data source = patent US11612576B2
